tested on: P. falciparum 3D7 parasites; assay: P. falciparum growth inhibition assay, 1-cycle (72 h treatment), SYBR DNA staining (library screen at 2 μg/mL and dose-response); assay type: cell-based, Plasmodium falciparum; details: Plasmodium falciparum, 3D7; P. falciparum, 72 h, parasite screen 2 μg/mL, % growth, replicate 1; read-out: Pf_72h_%Growth_Rep1
readout label: activity at 2 µg/mL (%)
Answers are plain numbers, in %.

compound: CC1(C)[C@H](C(=O)O)N2C(=O)C[C@H]2S1(=O)=O [Sulbactam sodium]
activity at 2 µg/mL, %: 90.2

compound: CCCCCC1=C/C(=C/c2[nH]c(-c3ccc[nH]3)cc2OC)N=C1C
activity at 2 µg/mL, %: 5.96

compound: COc1cc(C(=O)O)c2c(c1C)OC(=O)c1c(C)cc(O)c(C=O)c1O2
activity at 2 µg/mL, %: 92.3

compound: CO[C@H]1[C@H](O)[C@@H](O)[C@H](n2c3c(Cl)cccc3c3c4c(c5c6cccc(Cl)c6[nH]c5c32)C(=O)NC4=O)O[C@@H]1CO
activity at 2 µg/mL, %: 22.6

compound: Cc1cc(O)c2c(c1)O[C@@]1(C)CC[C@H]3C(C)(C)CCC[C@]34CO[C@@H]2[C@H]41
activity at 2 µg/mL, %: 76

Read the next record carefully.
Fill in the recorded activity at 2 µg/mL for this compound, with P. falciparum 3D7 parasites as test system: CO[C@H]1C[C@H](O[C@@H]2/C(C)=C/C[C@@H]3C[C@@H](C[C@]4(CC[C@H](C)[C@@H](C5CCCCC5)O4)O3)OC(=O)[C@@H]3C=C(C)/C(=N/O)[C@H]4OC/C(=C\C=C\[C@@H]2C)[C@]43O)O[C@@H](C)[C@@H]1O [selamectin, reference compound] 3.56
